- System name: Receptor tyrosine-protein kinase erbB-2 (Homo sapiens) (UniProt P04626)
- Sequence (P04626 whole entry): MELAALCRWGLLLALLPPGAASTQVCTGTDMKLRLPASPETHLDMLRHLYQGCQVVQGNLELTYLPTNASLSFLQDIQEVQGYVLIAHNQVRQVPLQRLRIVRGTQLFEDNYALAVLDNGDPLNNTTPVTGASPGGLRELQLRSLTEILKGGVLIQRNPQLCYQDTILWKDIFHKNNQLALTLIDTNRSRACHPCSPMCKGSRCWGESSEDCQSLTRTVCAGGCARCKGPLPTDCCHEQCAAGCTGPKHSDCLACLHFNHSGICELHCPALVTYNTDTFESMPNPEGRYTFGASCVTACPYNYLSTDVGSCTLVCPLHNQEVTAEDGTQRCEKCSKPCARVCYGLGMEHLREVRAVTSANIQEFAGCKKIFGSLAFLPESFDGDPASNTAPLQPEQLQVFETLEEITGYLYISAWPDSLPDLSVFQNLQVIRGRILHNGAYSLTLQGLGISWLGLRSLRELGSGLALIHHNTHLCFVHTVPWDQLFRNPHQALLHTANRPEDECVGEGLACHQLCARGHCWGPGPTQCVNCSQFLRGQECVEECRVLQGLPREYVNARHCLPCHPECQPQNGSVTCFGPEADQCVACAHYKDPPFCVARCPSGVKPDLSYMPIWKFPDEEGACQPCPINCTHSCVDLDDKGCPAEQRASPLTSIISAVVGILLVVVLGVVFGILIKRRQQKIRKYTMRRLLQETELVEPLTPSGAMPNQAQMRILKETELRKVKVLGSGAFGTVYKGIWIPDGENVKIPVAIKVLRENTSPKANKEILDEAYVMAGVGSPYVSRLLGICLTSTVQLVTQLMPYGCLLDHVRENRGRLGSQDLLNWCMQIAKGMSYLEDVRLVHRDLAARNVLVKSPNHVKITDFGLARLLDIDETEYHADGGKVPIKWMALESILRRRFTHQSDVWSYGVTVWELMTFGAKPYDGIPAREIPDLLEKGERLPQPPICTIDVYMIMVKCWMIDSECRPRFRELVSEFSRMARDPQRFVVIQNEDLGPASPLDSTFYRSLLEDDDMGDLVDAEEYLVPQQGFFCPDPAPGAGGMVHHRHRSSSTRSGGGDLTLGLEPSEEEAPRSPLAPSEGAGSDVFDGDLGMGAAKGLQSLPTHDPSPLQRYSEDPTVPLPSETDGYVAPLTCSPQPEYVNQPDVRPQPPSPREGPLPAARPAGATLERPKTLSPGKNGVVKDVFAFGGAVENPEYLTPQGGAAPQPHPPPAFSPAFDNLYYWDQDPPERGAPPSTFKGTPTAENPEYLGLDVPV
- Test summary: Ratio of HER-2 inhibition by diastereomers
Assay readout: Selectivity
Give bare numbers.

Batch request: Selectivity for each of the following molecules.
1. CCOC1CC2OC1(C(=O)OC)C(=O)N2C[C@H]1O[C@@H](n2cnc3c(N)ncnc32)[C@H](O)[C@@H]1O.CCOC1C[C@@]2(C)OC1(C(=O)OC)C(=O)N2C[C@H]1O[C@@H](n2cnc3c(N)ncnc32)[C@H](O)[C@@H]1O (some centres not stated)
2. CN1C(=O)C2(C(N)=O)O[C@@]1(C)CC2OC(=O)NC[C@H]1O[C@@H](n2cnc3c(N)ncnc32)[C@H](O)[C@@H]1O.CN1CC2(C(N)=O)O[C@]1(C)C(=O)C2OC(=O)NC[C@H]1O[C@@H](n2cnc3c(N)ncnc32)[C@H](O)[C@@H]1O (some centres not stated)

[4.8, 54.7]

###

Could you please report measured Selectivity for the items listed next?
- System name: UniProtKB P04626
- Test summary: Ratio of HER-2 inhibition by diastereomers
One number for each entry.

Batch request: Selectivity for each of the following molecules.
1. CCOC1CC2(C[C@H]3O[C@@H](n4cnc5c(N)ncnc54)[C@H](O)[C@@H]3O)OC1(C(=O)OC)C(=O)N2C (some centres undefined)
2. CCOC1CC2(C[C@H]3O[C@@H](n4cnc5c(NC(=O)OCc6ccccc6)ncnc54)[C@H](O)[C@@H]3O)OC1(C(=O)OC)C(=O)N2C.CCOC1C[C@@]2(C[C@H]3O[C@@H](n4cnc5c(NC(=O)OCc6ccccc6)ncnc54)[C@H](O)[C@@H]3O)OC1(C(=O)OC)C(=O)N2C (some centres undefined)
3. CCOC1CC2(C)OC1(C(=O)NC[C@H]1O[C@@H](n3cnc4c(N)ncnc43)[C@H](O)[C@@H]1O)C(=O)N2C (some centres undefined)
4. CCOC1CC2(C)OC1(C(=O)OC)C(=O)N2C[C@H]1O[C@@H](n2cnc3c(NC(=O)OCc4ccccc4)ncnc32)[C@H](O)[C@@H]1O.CCOC1C[C@@]2(C)OC1(C(=O)OC)C(=O)N2C[C@H]1O[C@@H](n2cnc3c(NC(=O)OCc4ccccc4)ncnc32)[C@H](O)[C@@H]1O (some centres undefined)

34.4
3.1
9.1
1.7
